Parameter GI50: see the listing below.
- Tested on: Malme-3M
- testName: NCI tumour cell line growth inhibition, 48 h
The source made the active and inactive calls. Cut-off read from the data, not from the text of the source: active = GI50 up to about 1.1 µM and inactive = higher.

compound	GI50
CN(CCC(=O)O)S(=O)(=O)c1ccccc1	> 100 µM (inactive)
N=C(NNS(=O)(=O)c1ccccc1)Oc1ccc(Cl)cc1	> 100 µM (inactive)
COc1cc(OC)c2nc(C)c3c(c2c1)SCC3	24.7 µM (inactive)
COc1ccc([Se][Se]c2ccc(OC)cc2OC)c(OC)c1	4.54 µM (inactive)
CCOC(=O)c1ccc(C(=O)/C(C#N)=C2\CCCN2)n1C	> 100 µM (inactive)
O[C@H]1[C@H](O)[C@@H](Cn2nnc(-c3ccccc3)c2-c2ccccc2)OCO[C@@H]1Cn1nnc(-c2ccccc2)c1-c1ccccc1	9.42 µM (inactive)
C=CS(=O)(=O)CCN1CC1	> 10 µM (inactive)
CC(C)C(Nc1c2ccccc2[n+](C)c2ccccc12)C(=O)O (stereo unspecified)	> 100 µM (inactive)
Cc1nn(C)c(=S)n(C)c1=O	2.89 µM (inactive)
O=C1C[C@H](c2ccccc2)O[C@@H](c2ccccc2)C1	> 100 µM (inactive)
O=C(CCC(=O)Nc1ccc(Cl)c(Cl)c1)Cc1nc2ccccc2o1	> 100 µM (inactive)

====

- Test system: MCF7
- testName: NCI tumour cell line growth inhibition, 48 h
The source made the active and inactive calls. Rule as the data show it: active = GI50 up to about 1.1 µM and inactive = higher.
Outcomes: active, inactive

molecule	categoryLabel
O=[N+]([O-])/C(C(Cl)=C(Cl)Cl)=C(/Nc1cccc2cccnc12)n1nnc2ccccc21	inactive
[N-]=[N+]=CC(=O)OCC1SCCCS1	inactive
COc1cc(/C=C/c2ccc(O)c(OC)c2)cc(OC)c1	inactive
COC1=C(C)C(=O)C2=C(C1=O)C1C3CC4=C(C(=O)C(OC)=C(C)C4=O)C(CNC(=O)C(C)=O)N3C(C#N)C(C2)N1C (centres undefined)	active
CN(C)c1ccc(/C=C/c2ccc(S(N)(=O)=O)cc2)cc1	inactive
CCN(CC)CC1CCCCN1CC(=O)N1c2ccc(Br)cc2C(=O)Nc2cccnc21 (centres undefined)	inactive
CCOC(=O)c1c(O)nc(O)c(CC)c1C	inactive
COc1ccc(CC2C3=C(CCN2C(=O)C2CCC2)CC2(CC3)OCCO2)cc1O (centres undefined)	inactive
CCC1(O)CC(OC2CC(N(C)C)C(OC3CC(O)C(OC4CCC(=O)C(C)O4)C(C)O3)C(C)O2)c2c(O)c3c(c(O)c2C1C(=O)OC)C(=O)c1cccc(O)c1C3=O (centres undefined)	active

====

- System: MDA-MB-435
- testName: NCI tumour cell line growth inhibition, 48 h
Activity calls are given as the source filed them. Rule as the data show it: active = GI50 up to about 1.1 µM and inactive = higher.
Outcomes: TRUE = active, FALSE = inactive

compound	categoryLabel
COc1cc(Cc2nccc3cc(OC)c(OC)cc23)c(C(C)=O)cc1OC	FALSE
O=C(Nc1cccc(C(=O)NCCCO)c1)/C(=C/c1ccccc1)NC(=O)c1ccccc1	FALSE
CCN1C(=O)c2cc(OC)c(OC)cc2C(=O)C12OC(=O)c1cc3c(cc12)OCO3 (configuration not stated)	FALSE
CCOC(=O)/C=C(/OCC)[C@@H]1C(C(=O)c2ccc(Cl)cc2)[C@@H]1/C(=C\C(=O)OCC)OCC (some centres not stated)	FALSE
Nc1c(C(=O)O)nnc2ccc(Cl)cc12	FALSE
O=[N+]([O-])c1ccc2c(/N=N/c3c(O)ccc4ccccc34)c(O)cc(S(=O)(=O)O)c2c1	FALSE
CCP(=O)(CC)C(Cl)(Cl)C(O)C(C)(C)C (configuration not stated)	FALSE
OCC(O)COCn1cc(Cn2ncc3c(SCc4ccccc4)ncnc32)nn1 (configuration not stated)	FALSE
O=C(OCc1ccccc1)N1CCNCCNCC1	FALSE
COc1ccc(-n2cnc3c2=NC(C)(C)NC=3C(N)=O)c(OC)c1	FALSE
CO/[N+]([O-])=C\C(=O)N/C=C/C(=O)O	FALSE
CC(=O)CC1=C(OC(C)C)C2(OCCO2)C1O (configuration not stated)	FALSE
COC1CC(OC2CCC3(C)C(=CCC4C3C(OC(C)=O)C(OC(=O)CC(C)C)C3(C)C(C(C)=O)CCC43O)C2)OC(C)C1OC1CC(OC)C(OC2CC(OC)C(OC3OC(C)C(O)C(OC)C3O)C(C)O2)C(C)O1 (configuration not stated)	FALSE
COc1cc(OC)c(OC)cc1/C=C1\C=Cc2ccccc21	FALSE
CCc1c(-c2ccccc2)[nH]c2ccccc2c1=O	FALSE
Clc1ccc2c(NCCCCCCNc3ccnc4cc(Cl)ccc34)ccnc2c1	FALSE
Nc1ccnc2c1ncn2[C@H]1C[C@H](O)[C@@H](CO)O1	FALSE
O=C(O)c1cc2ccccc2c(/N=N\c2cc(C(F)(F)F)ccc2Cl)c1O	FALSE
O=C(O)c1cc(CCc2ccc(O)c(O)c2)ccc1O	FALSE
NC(=O)NC(=O)c1cccc(NC(=O)CF)c1	FALSE
N=C(N)N/N=C/c1c(-c2ccc(Cl)cc2)nc2sc(Cl)cn12	FALSE
Cc1cc2nc3c(C#N)c4c(c(Nc5ccc(F)cc5)n3c2cc1C)CCC4	FALSE
NC(=O)NNCc1ccccc1	FALSE
Cn1ccc(C(=O)NCCCCCNC(=O)c2ccn(C)c(=O)c2O)c(O)c1=O	FALSE
CC(=O)NC1C(OCc2ccccc2)OC(CO)C(O)C1OCC(=O)N[C@@H](C)C(=O)N[C@H](CCC(=O)NCCCNc1ccc([N+](=O)[O-])c2[nH]c3ccccc3c(=O)c12)C(N)=O (some centres not stated)	FALSE
Cc1ccc(C(=O)Nc2ccc(CP(=O)(O)O)cc2CP(=O)(O)O)cc1N	FALSE
O=[N+]([O-])/C(C(Cl)=C(Cl)Cl)=C(/Nc1cccc2cccnc12)n1nnc2ccccc21	FALSE
NC1CCCCC1.O=P(O)(O)C(O)/C=C/c1ccccc1 (configuration not stated)	FALSE
O=C(/C=C/c1ccc(O)c(O)c1)OCCCOC(=O)/C=C/c1ccc(O)c(O)c1	FALSE
COc1ccc(/C=C2\C[C@H]3[C@@H]4CCC5=CC(=O)CC[C@]5(C)[C@H]4CC[C@]3(C)C2=O)cc1OC	FALSE
CCOC1CC(=O)c2c(Br)sc(Br)c21 (configuration not stated)	FALSE
Cc1nc2[nH]ncn2c(=O)c1CCO	FALSE
CCOC(=O)c1ccc2nc3n(c2c1)C(c1c(F)cccc1F)SC3 (configuration not stated)	FALSE
O=c1c2ccccc2[nH]n1Cc1ccccc1	FALSE
C=CS(=O)(=O)CCN1CC1	FALSE
c1ccc(/N=C2\c3ccccc3CN2c2ccccn2)nc1	FALSE
COCCc1c(C)c(C#N)c2n(C)c3ccccc3n2c1=O	FALSE
O=C1NC(=S)N(c2cccc3ccccc23)C(=O)/C1=C/c1c[nH]c2ccccc12	FALSE
COc1cc(C2CC(C)(N3CCOCC3)Oc3cc4c(cc32)OCO4)cc(OC)c1OC (configuration not stated)	TRUE
Cc1cc(O)c(C(C)C)cc1C1(c2cc(C(C)C)c(O)cc2C)OC(=O)c2ccccc21	FALSE
C/C(=N\NC(=O)/C(C#N)=C\c1ccc(N(CCC#N)CCC#N)cc1)c1ccccc1	FALSE
Cc1ccc(S(=O)(=O)N2CCCSCC2)cc1	FALSE
